Study the reported IC50 values for Hepatocyte growth factor receptor (Homo sapiens) given below; they originate from different publications.

State the recorded IC50 for this entry: Cc1cnc(-c2cccc(Cn3nc(-c4cccc(Cl)c4)ccc3=S)c2)s1
10 to 1000 nM

State the recorded IC50 for this entry: CS(=O)(=O)c1ccc(-c2ccc3nnn(Cc4ccc5nc(NC(=O)C6CC6)cn5n4)c3c2)cc1
60 to 100 nM

State the recorded IC50 for this entry: CP(C)(=O)Cn1cc(-c2cnc3nnn(Cc4ccc5nccn5c4)c3n2)cn1
21 to 100 nM

State the recorded IC50 for this entry: Nc1ncc(-c2cnn([C@@H]3CN[C@H](C(=O)N4CCCC4)C3)c2)cc1-c1cc2c(Cl)ccc(F)c2cn1
100 to 1000 nM

---

Study the reported IC50 values for Hepatocyte growth factor receptor (Homo sapiens) given below; they originate from different publications.

Example cases with answers are listed next.
>>> df
                                  structure  readout_type  experimental_value
0  COc1ccn(-c2ccc(F)cc2)c(=O)c1C(=O)Nc1ccc(Oc2ccnc3ccc4c(c23)OCCO4)c(F)c1          IC50             ≤ 50 nM
1  COc1ccc(-c2ccc3nnc(C(F)(F)c4ccc5nc(NC(=O)C6CC6)cn5n4)n3c2)cc1          IC50             < 30 nM
2  CN1CCN(c2ccc(-c3cnc4c(c3)N(Cc3cc(C(F)(F)F)ccc3Cl)CCN4)cn2)CC1          IC50    1000 to 10000 nM

State the recorded IC50 for this entry: COCCOc1ccc2c(Oc3c(F)cc(NC(=O)c4cnccc4OC4CC4)cc3F)ccnc2c1
≤ 100 nM

State the recorded IC50 for this entry: CN1CCN(c2ccc(-c3cnc4c(c3)N(S(=O)(=O)c3ccccc3)CCN4)cn2)CC1
10000 to 100000 nM

State the recorded IC50 for this entry: COc1cc2c(Oc3c(F)cc(NC(=O)c4nnccc4OC4CC4)cc3F)ccnc2cc1OCCO
≤ 100 nM

State the recorded IC50 for this entry: CCc1ccnc2ccc(Sc3nnc4ccc(-c5cnn(C)c5)nn34)cc12
< 100 nM

State the recorded IC50 for this entry: CN(C)S(=O)(=O)c1cccc(-c2ccc3nnc(Cc4ccc5ncccc5c4)n3n2)c1
< 100 nM

---

Study the reported IC50 values for Hepatocyte growth factor receptor (Homo sapiens) given below; they originate from different publications.

>>> print(df.to_string())
                                   molecule                     target_or_test_system  readout_type  experimental_value
0  CC(C)n1cc(C(=O)Nc2ccc(Oc3ccnc4cc(OCCCN5CCCCC5)c5c(c34)OCCO5)c(F)c2)c(=O)n(-c2ccc(F)cc2)c1=O  Hepatocyte growth factor receptor (Homo sapiens)          IC50             ≤ 50 nM

Give Hepatocyte growth factor receptor (Homo sapiens) IC50 for O=C(Nc1cccc(Cn2nc(-c3cc(F)cc(F)c3)ccc2=O)c1)OCCN1CCNCC1
10 to 1000 nM

Give Hepatocyte growth factor receptor (Homo sapiens) IC50 for Fc1ccc(F)c(CN2CCNc3ncc(I)cc32)c1Cl
> 100000 nM

Give Hepatocyte growth factor receptor (Homo sapiens) IC50 for CC(C)c1cc(NC(=O)Nc2ccc(Oc3ccnc(-c4cnn(C)c4)c3)cc2F)n(-c2cccc(C#N)c2)n1
< 100 nM

Give Hepatocyte growth factor receptor (Homo sapiens) IC50 for CN(C)CCCOC(=O)Nc1cccc(Cn2nc(-c3ccc(Cl)cc3)ccc2=O)c1
10 to 1000 nM

Give Hepatocyte growth factor receptor (Homo sapiens) IC50 for Fc1ccc(-c2ccc3nnc(Cc4ccc5ncccc5c4)n3n2)cc1
100 to 1000 nM

Give Hepatocyte growth factor receptor (Homo sapiens) IC50 for COc1cccc(CNc2nnc(-c3c[nH]c4ncc(Br)cc34)o2)c1
100 to 10000 nM

Give Hepatocyte growth factor receptor (Homo sapiens) IC50 for Fc1cccc(CN2CCNc3ncc(I)cc32)c1C(F)(F)F
> 100000 nM

Give Hepatocyte growth factor receptor (Homo sapiens) IC50 for Cn1cc(-c2cc(Oc3ccc(NC(=O)Nc4ccn(C(C)(C)C)c4)c(F)c3)ccn2)cn1
< 10000 nM

Give Hepatocyte growth factor receptor (Homo sapiens) IC50 for CN1CCN(c2cc(-c3cnc4c(c3)C(Oc3cccc(Cl)c3)CCN4)ccn2)CC1 (centres unmarked)
1000 to 10000 nM

Give Hepatocyte growth factor receptor (Homo sapiens) IC50 for Cn1ncc2ccc(-c3n[nH]c4c3Cc3sc(-c5ccc(CN6CCOCC6=O)cc5)cc3-4)cc21
> 1000 nM

Give Hepatocyte growth factor receptor (Homo sapiens) IC50 for CC(C)Cn1ncc2ccc(-c3n[nH]c4c3Cc3sc(-c5ccc(CN6CCOCC6)cc5)cc3-4)cc21
> 1000 nM

---

Study the reported IC50 values for Hepatocyte growth factor receptor (Homo sapiens) given below; they originate from different publications.

Example cases with answers are listed next.
In [3]: df
Out[3]:
                                  structure                     target_or_test_system  experimental_value
0  Cn1cc2cc(C(F)(F)c3nnc4ccc(-c5ccc(C#N)nc5)nn34)c(F)cc2n1  Hepatocyte growth factor receptor (Homo sapiens)               65 nM
1  O=C(NCc1ccc(OC(F)(F)F)cc1)c1cnc2c(c1)N(Cc1cc(Cl)ccc1Cl)CCN2  Hepatocyte growth factor receptor (Homo sapiens)         > 100000 nM
2  Nc1ncc(-c2cnn([C@@H]3CN[C@H](C(=O)N4CCCC4)C3)c2)cc1-c1nc2ccccc2s1  Hepatocyte growth factor receptor (Homo sapiens)            ≤ 100 nM

The record that follows has no IC50 shown yet.
State the recorded IC50 for this entry: COc1cn(-c2ccc(F)cc2C)nc1C(=O)Nc1ccc(Oc2ncnc3cc(OCCCN4CCOCC4)c4c(c23)OCCO4)c(F)c1
≤ 50 nM

---

Study the reported IC50 values for Hepatocyte growth factor receptor (Homo sapiens) given below; they originate from different publications.

Example cases with answers are listed next.
In [3]: df
Out[3]:
                                   compound                     target_or_test_system  readout_type  experimental_value
0  Nc1ncc(-c2cnc(N3CCOCC3)s2)cc1-c1nc2ccccc2s1  Hepatocyte growth factor receptor (Homo sapiens)          IC50    1000 to 20000 nM
1  COc1ccc(F)cc1C(C)Oc1cc(-c2c(C)nnn2C)cnc1N (centres unmarked)  Hepatocyte growth factor receptor (Homo sapiens)          IC50          > 20000 nM
2  NS(=O)(=O)c1ccc(Oc2ccc3nnc(Cc4ccc5ncccc5c4)n3n2)cc1  Hepatocyte growth factor receptor (Homo sapiens)          IC50    1000 to 10000 nM
3  N#Cc1cccc(-c2ccc3nnc(Cc4ccc5ncsc5c4)n3n2)c1  Hepatocyte growth factor receptor (Homo sapiens)          IC50      100 to 1000 nM
4  Cn1cc(-c2cnc3ccc(Cc4nnc5ccc(-c6cnn(C)c6)nn45)cc3c2)cn1  Hepatocyte growth factor receptor (Homo sapiens)          IC50            < 100 nM
5  COc1cc2nccc(Oc3ccc(NC(=O)c4cn(CCF)c(=O)n(-c5ccc(F)cc5)c4=O)cc3F)c2c2c1OCCO2  Hepatocyte growth factor receptor (Homo sapiens)          IC50             ≤ 50 nM
6            O=C1CNc2ncc(I)cc2N1Cc1cccnc1Cl  Hepatocyte growth factor receptor (Homo sapiens)          IC50         > 100000 nM

The record that follows has no IC50 shown yet.
Give Hepatocyte growth factor receptor (Homo sapiens) IC50 for N#Cc1cc(-c2ccc3nnc(Sc4ccc5nc(NC(=O)C6CC6)cn5n4)n3c2)cnc1O
30 to 59 nM

---

Study the reported IC50 values for Hepatocyte growth factor receptor (Homo sapiens, UniProt P08581) given below; they originate from different publications.

                                   compound  experimental_value
0  Nc1ncc(-c2cnn(C3CCC(=O)CC3)c2)cc1-c1nc2ccccc2s1      100 to 1000 nM
1  CCOC(=O)Nc1cccc(Cn2nc(-c3ccc(C(=O)NCCCN4CCOCC4)cc3)ccc2=O)c1       10 to 1000 nM
2  CN1CCN(C(=O)c2ccc(-c3cnc4c(c3)C(Oc3cc(Cl)ccc3Cl)CCN4)cc2)CC1 (centres unmarked)    1000 to 10000 nM
3  COc1ccc(F)cc1C(C)Oc1cc(-c2c(OC)cnn2C)cnc1N (centres unmarked)            11200 nM
4  CCOC(=O)Nc1cccc(Cn2nc(-c3ccc(OCCN(C(C)C)C(C)C)cc3)ccc2=O)c1       10 to 1000 nM
5  CCOc1ccn(-c2ccc(F)cc2)c(=O)c1C(=O)Nc1ccc(Oc2ccnc3cc(OCCCN4CCS(=O)(=O)CC4)c4c(c23)OCCO4)c(F)c1             ≤ 50 nM
6  CC(=O)c1ccc(F)cc1OC1CCNc2ncc(-c3ccc(C(=O)N4CCN(C)CC4)cc3)cc21 (centres unmarked)  10000 to 100000 nM

The record that follows has no IC50 shown yet.
Give Hepatocyte growth factor receptor (Homo sapiens, UniProt P08581) IC50 for Cc1ccc2nnc(Sc3ccc4ncccc4c3)n2n1
100 to 1000 nM
